Sourced from paper PMC5540273

test system: PLK2; conditions: concentration: 1 μM,replicates: in singlicate; n = 1;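 note: KINOMEscan kinase panel screen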
metric: %Inh (%)
Supply the numeric figure in %, leaving out any unit text.

// known answers, use as guide
INSERT INTO measurements (molecule, metric, result_unit, obs_value) VALUES
  ('CC(=O)c1c(-c2ccncc2)[nH]c(-c2ccncc2)c1C', '%Inh', '%', 0),
  ('CCOC(=O)N1CCC(n2cnc(-c3ccc(F)cc3)c2-c2ccnc(N)n2)CC1', '%Inh', '%', 2),
  ('COc1cc(Nc2nccc(N3CCC(NC(=O)c4cccc(C#N)c4)C3)n2)cc(OC)c1OC (stereo not shown)', '%Inh', '%', 0);

Query: Short answer please: %Inh, PLK2, entry CN1CCN(CCNc2nc3cc(Oc4ccc(NC(=O)Nc5cc(C(F)(F)F)ccc5F)cc4)ccc3[nH]2)CC1.Cl.Cl
Reply: 0
